- TARGET_DESC: Kv3.2 (Homo sapiens)
- Sequence (Q96PR1 1-638): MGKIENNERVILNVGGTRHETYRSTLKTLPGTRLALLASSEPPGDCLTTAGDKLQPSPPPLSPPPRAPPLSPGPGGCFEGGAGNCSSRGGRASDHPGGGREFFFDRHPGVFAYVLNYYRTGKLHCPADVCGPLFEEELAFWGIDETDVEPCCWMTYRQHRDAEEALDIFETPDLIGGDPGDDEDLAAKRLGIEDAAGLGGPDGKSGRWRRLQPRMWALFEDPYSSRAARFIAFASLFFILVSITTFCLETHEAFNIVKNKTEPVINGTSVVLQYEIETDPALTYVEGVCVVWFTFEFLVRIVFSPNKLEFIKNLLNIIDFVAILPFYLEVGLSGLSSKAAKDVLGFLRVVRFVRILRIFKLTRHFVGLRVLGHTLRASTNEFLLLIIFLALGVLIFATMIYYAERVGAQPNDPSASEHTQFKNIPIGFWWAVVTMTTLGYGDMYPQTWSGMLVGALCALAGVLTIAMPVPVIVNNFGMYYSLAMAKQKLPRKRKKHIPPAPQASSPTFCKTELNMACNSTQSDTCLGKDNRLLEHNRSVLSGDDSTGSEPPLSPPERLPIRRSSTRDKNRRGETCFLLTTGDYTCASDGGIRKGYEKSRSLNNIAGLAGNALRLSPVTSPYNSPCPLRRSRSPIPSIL
- METHOD_DESCRIPTION: TEVC in Xenopus oocytes, concentration dependence of ΔV0.[…]
PARAMETER_MEASURED: EC50

>>> result("CC[C@H]1NC(=O)N(c2ccc(Oc3cccc4c3C3(CC3)CO4)nc2)C1=O")
"3.2 µM"
